assayed target: the molecule itself
measurement protocol: SEC
reported endpoint: percent monomer (Monomer:Dimer Ratio) (%)
Please give a number only; it is taken to be in %.

{"protein": "MjCobY P94A (enzyme, Methanocaldococcus jannaschii, UniProt Q58517 1-196, looked up) MDALIMAGGKGTRMGGVEKPLIKLCGRCLIDYVVSPLLKSKVNNIFIATSPNTPKTKEYINSAYKDYKNIVVIDTSGKGYIEDLNECIGYFSEAFLVVSSDLINLKSKIINSIVDYFYCIKAKTPDVEALAVMIPKEKYPNPSIDFNGLVPAGINVVSPKHGYQKEEIMVIDELIFNINTKDDLKLAEMLLKKDGL", "value units": "%", "readout number": 52}

Incoming: Item under review: MjCobY Y80F (enzyme, Methanocaldococcus jannaschii, UniProt Q58517 1-196, looked up) MDALIMAGGKGTRMGGVEKPLIKLCGRCLIDYVVSPLLKSKVNNIFIATSPNTPKTKEYINSAYKDYKNIVVIDTSGKGFIEDLNECIGYFSEPFLVVSSDLINLKSKIINSIVDYFYCIKAKTPDVEALAVMIPKEKYPNPSIDFNGLVPAGINVVSPKHGYQKEEIMVIDELIFNINTKDDLKLAEMLLKKDGL . Reported percent monomer (Monomer:Dimer Ratio)?
Outgoing: 74
